system: CT26 tumor cells; assay: CT26 immunotherapy model (Example 15); assay type: in vivo, mice; settings: 10 in each group
ASSAY_METRIC: Cure rate % (%)

COMPOUND: CC(NC(=O)C(NC(=O)[C@H](O)[C@H](O)[C@@H](O[C@@H]1O[C@H](CO)[C@H](O)[C@H](O)[C@H]1O)[C@H](O)CO)C(C)C)C(=O)NC(CC(N)=O)C(=O)Nc1ccc(COC(=O)N(C)CCNC(=O)c2cc(Oc3ccc(NC(=O)Nc4ccc(Cl)c(C(F)(F)F)c4)cc3)ccn2)cc1 (some centres unmarked)
STUDY_TARGET: CT26 tumor cells
ASSAY_METRIC: Cure rate %
READOUT_NUMBER: 70
//
COMPOUND: CC(NC(=O)C(C)NC(=O)[C@H](O)[C@H](O)[C@@H](O[C@@H]1O[C@H](CO)[C@H](O)[C@H](O)[C@H]1O)[C@H](O)CO)C(=O)NC(CC(N)=O)C(=O)Nc1ccc(COC(=O)N(C)CCNC(=O)c2cc(Oc3ccc(NC(=O)Nc4ccc(Cl)c(C(F)(F)F)c4)c(F)c3)ccn2)cc1 (some centres unmarked)
STUDY_TARGET: CT26 tumor cells
ASSAY_METRIC: Cure rate %
READOUT_NUMBER: 50
